Measured Galactose, lipid fraction by item
- Tested on: Wistar (Crl:WI(Han)) rats
- measurement-protocol: Mass spectrometry-based plasma metabolite profiling of rats treated with known inducers of thyroid function impairment
- Format: in vivo, rat
- experimental-parameters: male rats, mh28 (study day 28), ratio of group medians vs controls, Table 4
Simply state the number, no unit and no words.

# Galactose, lipid fraction of Cn1cc[nH]c1=S = 1.53

# Galactose, lipid fraction of CCC1(c2ccccc2)C(=O)NC(=O)NC1=O [Phenobarbital sodium] = 1.06

# Galactose, lipid fraction of Cc1cccc(C)c1N(Cn1cccn1)C(=O)CCl = 2.57

Note: attention shifts to another entry.
# Galactose, lipid fraction of CCC(CC)Nc1c([N+](=O)[O-])cc(C)c(C)c1[N+](=O)[O-] = 2.23

Cited source: patent US20120132797A1
